Test system: TK-10
Test: NCI tumour cell line growth inhibition, 48 h
Activity calls are given as the source filed them. Rule as the data show it: active = GI50 up to about 1.1 µM and inactive = higher.
Entries annotated with measured GI50

COc1cc(/C=N/NC(=O)c2c(Cl)c(Cl)c(Cl)c(Cl)c2-c2nc3cc(C(=O)c4ccccc4)ccc3[nH]2)ccc1O    45.5 µM (inactive)

Answer with the recorded GI50 for the compound listed here: "COC(=O)C1=C(C(=O)OC)SC2(S1)C1=C(CCCC1)SC(C(=O)OC)=C2C(=O)OC"
10.9 µM (inactive)

Find the measured GI50 of "Nc1nc(N)nc(CCCCc2nc(N)nc(N)n2)n1" and report it.
> 100 µM (inactive)

Return GI50 (reported value) for this compound: "O=c1oc2cc(O)ccc2cc1-c1nc2ccccc2o1"
37 µM (inactive)

Determine its reported GI50: "CC1(C)[C@@H](Cn2cnc3c(Cl)nc(N)nc32)CC[C@@]1(C)CO"
> 100 µM (inactive)

Please report the measured GI50 for "Cc1cc(C[C@H]2O[C@@H]3OC(C)(C)O[C@@H]3[C@H]3OC(C)(C)O[C@H]32)c2ccccc2n1"
> 100 µM (inactive)

Look up and report measured GI50 for this entry: "Cc1ccc(Sc2ccc(C)cc2[N+](=O)[O-])c([N+](=O)[O-])c1"
> 100 µM (inactive)

For the compound "Cc1ccc(Sc2ccccc2[N+](=O)[O-])cc1" , give its measured GI50 value.
37.8 µM (inactive)

Fill in GI50 for record "COc1cc2c(cc1OC)[C@@H]([C@H](O)c1ccccc1)NCC2"
> 100 µM (inactive)

Input "CCOC(=O)C1=C(C)NC(C)=C(C(=O)OCC)C1c1ccc(C)cc1" , output reported GI50.
66.8 µM (inactive)

---

Test system: RXF 393
Assay: NCI tumour cell line growth inhibition, 48 h
Active and inactive are the calls of the source. Cut-off read from the data, not from the text of the source: active = GI50 up to about 1.1 µM and inactive = higher. Numbered stars: 1 amine (or outer) side, 2 acyl side, 3 side chain; on linkers, the order of the positions; unused ones are H or OH. Bridge positions count the residues as written; N and C are the ends. Square brackets hold non-standard residues; d marks the D form. Peptide text beside a SMILES is read from it. * marks the point of attachment. ξ: configuration not given here. X33 = O=C(C(CCCCNO[*:3])N[*:1])[*:2]; Fmoc = O=C(OCC1c2ccccc2-c2ccccc21)*; ξW = NC(Cc1c[nH]c2ccccc12)C(=O)O; ξP = O=C(O)C1CCCN1
valueType: GI50

Some solved entries appear below for comparison.
Nc1nc(Cl)cc(NCC2(CO)CCC(CCc3ccccc3)C2)n1 (stereo unspecified)    14.8 µM (inactive)
C=C1C(=O)O[C@H]2[C@H]3O[C@@H](C[C@@H]12)[C@@]1(C)CC[C@H](O1)[C@H](C)CCC[C@H]3C    2.15 µM (inactive)
O=C(/C=C/c1ccc(OCC(=O)N2CCN(c3ccccc3)CC2)cc1)c1ccc(Cl)cc1    21.9 µM (inactive)

Answer with the recorded GI50 for the compound listed here: "C[C@H]1C[C@H]2[C@@H]3CCC4=CC(=O)C=C[C@]4(C)C3=CC[C@]2(C)[C@@]1(O)C(=O)CO"
> 100 µM (inactive)

Please list GI50 recorded for the compound NC(=O)CNC(=O)C1CCCN1C(=O)C1CCCCNOC(=O)CC[C@@H](NC(=O)OCC2c3ccccc3-c3ccccc32)C(=O)NC(Cc2c[nH]c3ccccc23)C(=O)N1 (stereo partly specified) (Fmoc-[dE][ξW][X33][ξP]G-NH2; ester 1-3)
> 100 µM (inactive)

Hello, please tell me recorded GI50 for this one: "CCOC(=O)C1(CO)CSCCSC1"
> 100 µM (inactive)

Numbers sourced from ChEMBL document CHEMBL1201862.
